# TARGET_UNDER_TEST: human GPRC5D (human, UniProt Q9NZD1 1-345)
# Sequence (Q9NZD1 whole entry): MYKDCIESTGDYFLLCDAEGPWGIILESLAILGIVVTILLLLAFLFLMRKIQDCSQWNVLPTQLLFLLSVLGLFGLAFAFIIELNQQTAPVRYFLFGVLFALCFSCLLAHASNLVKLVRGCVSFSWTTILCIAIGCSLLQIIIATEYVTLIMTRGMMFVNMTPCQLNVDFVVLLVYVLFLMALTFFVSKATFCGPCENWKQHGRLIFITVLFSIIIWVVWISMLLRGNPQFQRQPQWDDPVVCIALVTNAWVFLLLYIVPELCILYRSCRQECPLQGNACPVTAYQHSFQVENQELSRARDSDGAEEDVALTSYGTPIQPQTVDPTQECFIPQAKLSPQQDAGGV
# PROTOCOL: cell-based or functional assay
ENDPOINT_LABEL: CAR-J2 EC50

INSERT INTO results (binder, endpoint_label, measured_result) VALUES
  ('P1AE5759 (antibody, V domains shown) VH: EVQLVESGGGLVQPGGSLRLSCAASGFSFSNYGMAWVRQAPGKGLEWVASISTGGGNTYYRDSVKGRFTISRDNAKNTLYLQMNSLRAEDTAVYYCTRHDRGGLYWGQGTMVTVSS VL: EIVLTQSPGTLSLSPGERATLSCRASKSLLHSNGITYVYWYQQKPGQAPRLLIYRMSNLASGIPDRFSGSGSGTDFTLTISRLEPEDFAVYHCGQLLENPYTFGQGTKLEIK', 'CAR-J2 EC50', '0.0157 µg/mL'),
  ('P1AE5763 (antibody, V domains shown) VH: EVQLVESGGGLVQPGGSLRLSCAASGFSFSNYGMAWVRQAPGKGLEWVASISTGGGNTYYADSVKGRFTISRDNAKNTLYLQMNSLRAEDTAVYYCTRHDRGGLYWGQGTMVTVSS VL: DIVMTQSPDSLAVSLGERATINCKSSKSLLHSNGITYVYWYQQKPGQPPKLLIYRMSNLASGVPDRFSGSGSGTDFTLTISSLQAEDVAVYHCGQLLENPYTFGQGTKLEIK', 'CAR-J2 EC50', '0.00547 µg/mL'),
  ('P1AE5749 (antibody, V domains shown) VH: QVQLVESGGGVVQPGRSLRLSCAASGFSFSNYGMAWVRQAPGKGLEWVASISTGGGNTYYADSVKGRFTISRDNSKNTLYLQMNSLRAEDTAVYYCTRHDRGGLYWGQGTMVTVSS VL: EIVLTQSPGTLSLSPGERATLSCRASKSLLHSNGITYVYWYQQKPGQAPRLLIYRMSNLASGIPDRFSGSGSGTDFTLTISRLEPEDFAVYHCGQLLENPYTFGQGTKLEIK', 'CAR-J2 EC50', '0.0826 µg/mL');
